Test system: Staphylococcus aureus
Protocol Text: Antibacterial activity against Staphylococcus aureus MTCC 3160 assessed as growth inhibition after 18 hrs by CLSI microdilution broth assay
Type: functional
Particulars: MTCC 3160, 18 h
Where a SMILES comes first, the peptide text is derived from it. [ ]: non-standard residue; d: D form. 3Abz = Nc1cccc(C(=O)O)c1
Kindly state MIC for each of the entries shown.
Entry rule: numbers only, all in mg/L.

Lab note: N=C(N)NCCCC(NC(=O)c1cccc(NC(=O)C(CCCNC(=N)N)NC(=O)C(N)Cc2c[nH]c3ccccc23)c1)C(N)=O (stereo not given) (H-WR[3Abz]R-NH2; configuration not given here) gave MIC of 150

Lab note: N=C(N)NCCCC(NC(=O)C(Cc1ccccc1)NC(=O)c1cccc(NC(=O)C(Cc2ccccc2)NC(=O)C(CCCNC(=N)N)NC(=O)C(N)Cc2ccccc2)c1)C(N)=O (stereo not given) (H-FRF[3Abz]FR-NH2; configuration not given here) gave MIC of 120

Lab note: N=C(N)NCCCC(N)C(=O)NC(CCCNC(=N)N)C(=O)NC(Cc1c[nH]c2ccccc12)C(=O)NC(Cc1c[nH]c2ccccc12)C(=O)NC(CCCNC(=N)N)C(N)=O (stereo not given) (H-RRWWR-NH2; configuration not given here) gave MIC of 25

Lab note: N=C(N)NCCCC(N)C(=O)NC(CCCNC(=N)N)C(=O)NC(Cc1ccccc1)C(=O)Nc1cccc(C(=O)NC(Cc2ccccc2)C(=O)NC(CCCNC(=N)N)C(N)=O)c1 (stereo not given) (H-RRF[3Abz]FR-NH2; configuration not given here) gave MIC of 150
